test system: Fibroblast; experiment: Multiplex assay against human fibroblast; assay type: toxicity, cell-based; settings: 24 h, 1 µM, compound concentration 1 uM, replicate 2
Measured Population Tubulin-Different-Phenotype (%) by item
I'd appreciate it if you wrote the number followed by its unit.

Past entries and their recorded results:
[
  {
    "compound": "CCOc1cc(N2CCC(O)CC2)ccc1Nc1ncc2c(n1)N(C1CCCC1)CCC(=O)N2C",
    "target-under-test": "Fibroblast",
    "measurement": "26%"
  },
  {
    "compound": "CC(=O)c1cc(-c2cc(C(=O)NC3CC3)ccc2C)c2ncccn12",
    "target-under-test": "Fibroblast",
    "measurement": "12%"
  },
  {
    "compound": "N#Cc1cnc(Nc2cc(NC[C@H]3CNCCO3)c(C(F)(F)F)cn2)cn1",
    "target-under-test": "Fibroblast",
    "measurement": "18%"
  },
  {
    "compound": "CNC(=O)c1nn(C)c2c1C(C)(C)Cc1cnc(Nc3ccc(N4CCN(C)CC4)cc3)nc1-2",
    "target-under-test": "Fibroblast",
    "measurement": "40%"
  }
]

Which Population Tubulin-Different-Phenotype (%) is reported for this compound? CN(C)C/C=C/C(=O)Nc1cc2c(Nc3ccc(F)c(Cl)c3)ncnc2cc1O[C@H]1CCOC1.O=C(O)/C=C\C(=O)O.O=C(O)/C=C\C(=O)O [AFATINIB DIMALEATE]
12%

Item under review: `CN(C)CCOc1ccc(-c2nc(-c3ccncc3)c(-c3ccc4c(c3)CC/C4=N\O)[nH]2)cc1` . Reported Population Tubulin-Different-Phenotype (%)?
25%

Would you kindly share the measured Population Tubulin-Different-Phenotype (%) for `COc1cc2c(Nc3ccc(NC(=O)c4ccccc4)cc3)ncnc2cc1OCCCN1CCOCC1` ?
52%

If you can, please state the reported Population Tubulin-Different-Phenotype (%) value of `Cc1cc2c(cc1N1C(=O)c3cccc4c(CCCO)ccc(c34)C1=O)n(C)c(=O)n2C` .
17%

What value of measured Population Tubulin-Different-Phenotype (%) is listed for `c1ccc2oc(-c3csc(C4CCN(Cc5nc6ncccc6[nH]5)CC4)n3)cc2c1` ?
25%

Look at this compound and give its reported Population Tubulin-Different-Phenotype (%). `CCc1cc2c(cc1CC)CC(NC[C@H](O)c1ccc(O)c3[nH]c(=O)ccc13)C2`
12%

Please look up its Population Tubulin-Different-Phenotype (%): `CC(C)N1CCC(C)(C)c2cc(C#Cc3ccc(C(=O)O)cc3)ccc21`
18%

Data request, read-out Population Tubulin-Different-Phenotype (%), for `O=C(O)c1ccc2cc(-c3ccc(O)c(C45CC6CC(CC(C6)C4)C5)c3)ccc2c1`
18%

Item `CNc1oc(-c2cccc3ccccc23)nc1C#N` has what recorded Population Tubulin-Different-Phenotype (%)?
21%

---

tested on: HEK-293T; assay: Incucyte cell viability with HEK293T; format: toxicity, cell-based; settings: human, 18 h, 10 µM, compound concentration 10 uM, replicate number 2, timepoint 18 hours; further: filed as whole numbers so only -1 and 0 and 1 occur
quantity-name: Growth Rate
Reply briefly: the number, and no unit.

[
  {
    "molecule": "CCCCN(CCCC)C(=O)CN1C[C@@H](c2ccc3c(c2)OCO3)[C@H](C(=O)O)[C@H]1c1ccc(OC)cc1",
    "quantity-name": "Growth Rate",
    "measurement": 0
  }
]

Bench note: what Growth Rate did `CCCCc1nc(Cl)c(CO)n1Cc1ccc(-c2ccccc2-c2nn[nH]n2)cc1` show?
0

# query: Growth Rate of entry `O=C(O)CC1CCC2(CC1)CCN(c1cc(OC(F)(F)F)ccc1Cl)CC2`
1

---

system: HEK-293T; assay: Multiplex assay against HEK293T; assay type: toxicity, cell-based; conditions: human, 12 h, 10 µM, compound concentration 10 uM, replicate 2
# Lookup of reported Population Mitochondria Different-Phenotype (%) keyed by entry
Provide the reading as a plain figure in %.

[
  {
    "molecule": "CCn1c(-c2nonc2N)nc2cnc(Oc3cccc(NC(=O)c4ccc(OCCN5CCOCC5)cc4)c3)cc21 [GSK-269962A]",
    "measurement": 100
  },
  {
    "molecule": "Nc1ccc(C(=O)Nc2cccc(-c3nc(N4CCOCC4)c4oc5ncccc5c4n3)c2)cn1",
    "measurement": 75
  }
]

Here's the next entry for you.
I'd like to know its Population Mitochondria Different-Phenotype (%). The molecule in question is `N#Cc1cnc(Nc2cc(NC[C@H]3CNCCO3)c(C(F)(F)F)cn2)cn1`
16

---

system: HEK-293T; test: Multiplex assay against HEK293T; assay type: toxicity, cell-based; details: human, 12 h, 10 µM, compound concentration 10 uM, replicate 2
Population Hoechst High Intensity Objects (%) values by entry
Could you give the number and then its unit, please?

Known results for compounds:
[
  {
    "compound": "CC(C)Oc1ccc(C(=O)N[C@H](CNC(=O)CN(C)C)Cc2ccc(-c3cn4cccc([C@H](C)O)c4n3)cc2)cc1Cl [GSK-923295A]",
    "measurement": "4%"
  },
  {
    "compound": "CC(=O)c1cc(-c2cc(C(=O)NC3CC3)ccc2C)c2ncccn12",
    "measurement": "4%"
  },
  {
    "compound": "CN(C)CCOc1ccc(-c2nc(-c3ccncc3)c(-c3ccc4c(c3)CC/C4=N\\O)[nH]2)cc1 [SB590885]",
    "measurement": "1%"
  },
  {
    "compound": "CCn1c(-c2nonc2N)nc2cnc(Oc3cccc(NC(=O)c4ccc(OCCN5CCOCC5)cc4)c3)cc21 [GSK-269962A]",
    "measurement": "7%"
  },
  {
    "compound": "O=C(O)c1ccc2cc(-c3ccc(O)c(C45CC6CC(CC(C6)C4)C5)c3)ccc2c1 [O-DEMETHYLATED ADAPALENE]",
    "measurement": "5%"
  },
  {
    "compound": "Cc1cc2c(cc1N1C(=O)c3cccc4c(CCCO)ccc(c34)C1=O)n(C)c(=O)n2C",
    "measurement": "4%"
  }
]

Next up:
For CN(C)C/C=C/C(=O)Nc1cc2c(Nc3ccc(F)c(Cl)c3)ncnc2cc1O[C@H]1CCOC1.O=C(O)/C=C\C(=O)O.O=C(O)/C=C\C(=O)O [AFATINIB DIMALEATE] , what is its reported Population Hoechst High Intensity Objects (%)?
4%

---

tested on: U2OS; experiment: Multiplex assay against U2OS; format: toxicity, cell-based; settings: human, 12 h, 1 µM, compound concentration 1 uM, replicate 1
Entries are sorted into classes by Population Mitochondria Different-Phenotype (%) as follows: lower level = under 10%, middle level = from 10% up to 20%, upper level = 20% and over

Sample answers from the record:
[
  {
    "compound": "CCn1c(-c2nonc2N)nc2cnc(Oc3cccc(NC(=O)c4ccc(OCCN5CCOCC5)cc4)c3)cc21 [GSK-269962A]",
    "cat": "middle level"
  },
  {
    "compound": "COc1ccc(NS(=O)(=O)c2sc3ccc(Cl)cc3c2C)cc1N1CCNCC1.Cl",
    "cat": "middle level"
  },
  {
    "compound": "CN(C)C/C=C/C(=O)Nc1cc2c(Nc3ccc(F)c(Cl)c3)ncnc2cc1O[C@H]1CCOC1.O=C(O)/C=C\\C(=O)O.O=C(O)/C=C\\C(=O)O [AFATINIB DIMALEATE]",
    "cat": "lower level"
  },
  {
    "compound": "Nc1nc2c(c(N3CCNCC3)n1)CCC1=C2[C@@H]2CCCC[C@@H]2O1",
    "cat": "lower level"
  },
  {
    "compound": "COc1cc2c(NC3CCN(C(C)C)CC3)nc(N3CCC(F)(F)CC3)nc2cc1OCCCN1CCCC1",
    "cat": "middle level"
  }
]

We next turn to a different compound, shown below.
Just checking, what class would you give CCC(=O)O[C@]1(C(=O)SCF)[C@H](C)C[C@H]2[C@@H]3C[C@H](F)C4=CC(=O)C=C[C@]4(C)[C@@]3(F)[C@@H](O)C[C@@]21C [FLUTICASONE PROPIONATE] here?
lower level

---

test system: U2OS; assay: Multiplex assay against U2OS; type: toxicity, cell-based; details: human, 48 h, 10 µM, compound concentration 10 uM, replicate 2
quantity-name: Population Mitotic Cells (%)

Reference set, count: 8
[
  {
    "compound": "Cc1cc2c(cc1N1C(=O)c3cccc4c(CCCO)ccc(c34)C1=O)n(C)c(=O)n2C",
    "measurement": "11%"
  },
  {
    "compound": "CC(=O)c1cc(-c2cc(C(=O)NC3CC3)ccc2C)c2ncccn12",
    "measurement": "12%"
  },
  {
    "compound": "O=C(O)c1ccc2cc(-c3ccc(O)c(C45CC6CC(CC(C6)C4)C5)c3)ccc2c1 [O-DEMETHYLATED ADAPALENE]",
    "measurement": "9%"
  },
  {
    "compound": "COc1cc2c(NC3CCN(C(C)C)CC3)nc(N3CCC(F)(F)CC3)nc2cc1OCCCN1CCCC1",
    "measurement": "7%"
  },
  {
    "compound": "COc1ccc(NS(=O)(=O)c2sc3ccc(Cl)cc3c2C)cc1N1CCNCC1.Cl",
    "measurement": "31%"
  },
  {
    "compound": "CC(C)Oc1ccc(C(=O)N[C@H](CNC(=O)CN(C)C)Cc2ccc(-c3cn4cccc([C@H](C)O)c4n3)cc2)cc1Cl [GSK-923295A]",
    "measurement": "26%"
  },
  {
    "compound": "Nc1ccc(C(=O)Nc2cccc(-c3nc(N4CCOCC4)c4oc5ncccc5c4n3)c2)cn1",
    "measurement": "8%"
  },
  {
    "compound": "CCn1c(-c2nonc2N)nc2cnc(Oc3cccc(NC(=O)c4ccc(OCCN5CCOCC5)cc4)c3)cc21 [GSK-269962A]",
    "measurement": "42%"
  }
]

// lookup Population Mitotic Cells (%) | system=U2OS | key= `CNc1oc(-c2cccc3ccccc23)nc1C#N`
18%
